# assay summary: solvent given as SMILES
# particulars: in CCCCCC
measurement kind: emission maximum (nm)
Report as a plain number; the unit nm is understood.

Example results:
[Q] Look at this compound and give its reported emission maximum. `c1ccc2cc(-c3cc(-c4nccs4)nc(-c4nccs4)c3)ccc2c1`
[A] 361

[Q] Look at this compound and give its reported emission maximum. `F[B-]1(F)n2c(-c3ccccc3)cnc2-c2cccc[n+]21`
[A] 487

[Q] Look at this compound and give its reported emission maximum. `Cc1ccc(C(=O)/C=C2\C(=O)Nc3ccccc32)cc1C`
[A] 387

[Q] Look at this compound and give its reported emission maximum. `Cc1cc(C)n2c1C=C1c3ccccc3C(c3cccn3C)=[N+]1[B-]2(F)F`
[A] 605

---
[Q] Look at this compound and give its reported emission maximum. `N#Cc1nc2c3ccc(N(c4ccccc4)c4ccccc4)cc3c3cc(N(c4ccccc4)c4ccccc4)ccc3c2nc1C#N`
[A] 515.27

[Q] Look at this compound and give its reported emission maximum. `COc1ccc2c(c1)N(c1ccc(C)cc1)c1cc3c(cc1=N2)Oc1c(cc(C(C)(C)C)cc1C(C)(C)C)N=3`
[A] 586

[Q] Look at this compound and give its reported emission maximum. `CCOC(=O)COc1ccc(/C=C/C2=C3c4ccccc4C(c4[nH]c(C)cc4C)=[N+]3[B-](F)(F)n3c(/C=C/c4ccc(OCC(=O)OCC)cc4)cc(C)c32)cc1`
[A] 731

[Q] Look at this compound and give its reported emission maximum. `CCc1c(C)[nH]c(C2=[N+]3C(=Cc4c(C)c(CC)c(C)n4[B-]3(F)F)c3ccccc32)c1C`
[A] 641

[Q] Look at this compound and give its reported emission maximum. `CC(C)(C)c1ccc(-c2sc3c(-c4ccc(C(C)(C)C)cc4)c4n(c3c2-c2ccc(C(C)(C)C)cc2)[B-](F)(F)[N+]2=Cc3c(-c5ccc(C(C)(C)C)cc5)c5sc(-c6ccc(C(C)(C)C)cc6)c(-c6ccc(C(C)(C)C)cc6)c5n3[B-](F)(F)[N+]2=C4)cc1`
[A] 626

Measured values drawn from the Deep4Chem optical property database for this set.
